target: IgE antibodies of the individual allergic patient serum II/3; assay: EAST inhibition, individual serum II/3
# allergenic potency (Prel) at 50% inhibition (relative to native Phl p 5b) per record follows
No unit in the answer, only the number.

Illustrative cases are given below, each with its answer.
binder	measured number
rPhl p 5b deletion mutant DM1 (deletion K50-P132, D49L) (protein) ADAGYAPATPAAAGAAAGKATTEEQKLIEDINVGFKAAVAAAASVPAALAGELQIIDKIDAAFKVAATAAATAPADDKFTVFEAAFNKAIKESTGGAYDTYKCIPSLEAAVKQAYAATVAAAPQVKYAVFEAALTKAITAMSEVQKVSQPATGAATVAAGAATTAAGAASGAATVAAGGYKV	0.0035
rPhl p 5b deletion mutant DM3 (deletion A154-T177, A220T) (protein) ADAGYAPATPAAAGAAAGKATTEEQKLIEDINVGFKAAVAAAASVPAADKFKTFEAAFTSSSKAAAAKAPGLVPKLDAAYSVAYKAAVGATPEAKFDSFVASLTEALRVIAGALEVHAVKPVTEEPGMAKIPAGELQIIDKIDAAFKVAATAAGGAYDTYKCIPSLEAAVKQAYAATVAAAPQVKYAVFEAALTKTITAMSEVQKVSQPATGAATVAAGAATTAAGAASGAATVAAGGYKV	1.8e-07
rPhl p 5b point mutant PM3 (A13C) (protein) ADAGYAPATPAACGAAAGKATTEEQKLIEDINVGFKAAVAAAASVPAADKFKTFEAAFTSSSKAAAAKAPGLVPKLDAAYSVAYKAAVGATPEAKFDSFVASLTEALRVIAGALEVHAVKPVTEEPGMAKIPAGELQIIDKIDAAFKVAATAAATAPADDKFTVFEAAFNKAIKESTGGAYDTYKCIPSLEAAVKQAYAATVAAAPQVKYAVFEAALTKAITAMSEVQKVSQPATGAATVAAGAATTAAGAASGAATVAAGGYKV	0.399
recombinant Phl p 5b (wild type) (protein) ADAGYAPATPAAAGAAAGKATTEEQKLIEDINVGFKAAVAAAASVPAADKFKTFEAAFTSSSKAAAAKAPGLVPKLDAAYSVAYKAAVGATPEAKFDSFVASLTEALRVIAGALEVHAVKPVTEEPGMAKIPAGELQIIDKIDAAFKVAATAAATAPADDKFTVFEAAFNKAIKESTGGAYDTYKCIPSLEAAVKQAYAATVAAAPQVKYAVFEAALTKAITAMSEVQKVSQPATGAATVAAGAATTAAGAASGAATVAAGGYKV	0.419
natural Phl p 5b, purified by affinity chromatography (protein) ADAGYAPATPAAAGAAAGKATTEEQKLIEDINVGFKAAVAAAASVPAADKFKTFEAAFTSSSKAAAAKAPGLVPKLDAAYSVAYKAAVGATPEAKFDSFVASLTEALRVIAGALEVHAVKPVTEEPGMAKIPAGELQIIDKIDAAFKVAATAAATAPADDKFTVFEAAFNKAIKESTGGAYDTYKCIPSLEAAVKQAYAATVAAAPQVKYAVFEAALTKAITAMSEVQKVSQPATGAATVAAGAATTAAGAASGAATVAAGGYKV	1

Which allergenic potency (Prel) at 50% inhibition (relative to native Phl p 5b) is reported for this binder? rPhl p 5b point mutant PM1 (N32D, D49L, K50A) (protein) ADAGYAPATPAAAGAAAGKATTEEQKLIEDIDVGFKAAVAAAASVPAALAFKTFEAAFTSSSKAAAAKAPGLVPKLDAAYSVAYKAAVGATPEAKFDSFVASLTEALRVIAGALEVHAVKPVTEEPGMAKIPAGELQIIDKIDAAFKVAATAAATAPADDKFTVFEAAFNKAIKESTGGAYDTYKCIPSLEAAVKQAYAATVAAAPQVKYAVFEAALTKAITAMSEVQKVSQPATGAATVAAGAATTAAGAASGAATVAAGGYKV 0.314

Values from patent US6919086B1
